# Tested Target: cerebral H1 receptor (Mus musculus, UniProt P70174)
# Construct: the entire brain, except for cerebellum and medulla oblongatae, was rapidly excised; from tissue; host or cells: brain homogenate (without cerebellum and medulla oblongata) of orally dosed ICR male mice
# Sequence (P70174 whole entry): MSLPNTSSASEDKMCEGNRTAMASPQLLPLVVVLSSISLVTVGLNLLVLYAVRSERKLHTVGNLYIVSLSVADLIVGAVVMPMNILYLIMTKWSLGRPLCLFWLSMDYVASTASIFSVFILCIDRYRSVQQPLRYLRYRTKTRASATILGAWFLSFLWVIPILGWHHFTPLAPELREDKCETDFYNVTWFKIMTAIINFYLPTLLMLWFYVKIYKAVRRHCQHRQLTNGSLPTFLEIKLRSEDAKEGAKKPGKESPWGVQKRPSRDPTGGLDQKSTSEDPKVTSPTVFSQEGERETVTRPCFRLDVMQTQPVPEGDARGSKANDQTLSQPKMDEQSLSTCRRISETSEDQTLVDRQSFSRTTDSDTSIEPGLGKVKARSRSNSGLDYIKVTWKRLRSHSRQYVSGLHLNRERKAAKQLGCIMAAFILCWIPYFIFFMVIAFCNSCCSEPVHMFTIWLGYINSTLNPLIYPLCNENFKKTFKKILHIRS
# Measurement Notes: Murine cerebral H1 receptor occupying content (ex vivo)
# Format: in vivo
# Measurement Context: ID50 of cerebral receptor binding test (Table 20) divided by ED50 of vascular hyperpermeability test (Table 19)
Attribute Measured: ID50 (mg/kg)/ ED50 (mg/kg)

Known ID50 (mg/kg)/ ED50 (mg/kg) results, listed for orientation:
Query Smiles: CC(=O)CCCN1CCC(=C2c3cc(CC(=O)O)ccc3OCc3ccsc32)CC1
Tested Target: cerebral H1 receptor (Mus musculus, UniProt P70174)
ID50 (mg/kg)/ ED50 (mg/kg): 114.5
//
Query Smiles: CN1CCC(=C2c3cc(CC(=O)O)ccc3OCc3ccsc32)CC1.Cl
Tested Target: cerebral H1 receptor (Mus musculus, UniProt P70174)
ID50 (mg/kg)/ ED50 (mg/kg): 344.4
//
Query Smiles: CN1CCC(=C2c3ccccc3CCc3sc(C(=O)NCCO)cc32)CC1
Tested Target: cerebral H1 receptor (Mus musculus, UniProt P70174)
ID50 (mg/kg)/ ED50 (mg/kg): 33.8
//
Query Smiles: CN1CCC(=C2c3cc(SCC(=O)O)ccc3OCc3ccsc32)CC1
Tested Target: cerebral H1 receptor (Mus musculus, UniProt P70174)
ID50 (mg/kg)/ ED50 (mg/kg): 239.3

Quick batch: ID50 (mg/kg)/ ED50 (mg/kg) for everything below.
1. CN1CCC(=C2c3cc(SC(C)(C)C(=O)O)ccc3OCc3ccsc32)CC1.Cl
2. CN1CCC(=C2c3cc(C(=O)O)ccc3OCc3ccsc32)CC1
3. CN1CCC(=C2c3cc(CCCC(=O)O)ccc3OCc3ccsc32)CC1

Resp:
1: 174.7; 2: 81.4; 3: 355.6

The origin of these recorded values is patent US8377967B2.
